Each entry below carries its recorded cytotoxicity at 70.5 h.
# Assay comment: Human HepG2 cell viability assay in 384 well format
# Assay type: toxicity, cell-based
# Parameters: dose 125 nL, time 70.5 hour; concentration not given beside the values
# Measurement conditions: HepG2 cells, read-out: Inhibition
Measure name: cytotoxicity at 70.5 h (%)

* CSCc1noc(CN2CC3(CCCC3)CC2=O)n1 | -7.21
* Cc1ccc(CN2CCC3(C2)C(=O)N(CC(N)=O)c2ccccc23)s1 (centres undefined) | -3.49
* Cc1cc2nc(C(C)C)cc(N3CCN(S(N)(=O)=O)CC3)n2n1 | -3.4
* CCc1nc2n(n1)CC(NCC(=O)Nc1nccs1)CC2 (centres undefined) | 8
* O=C(Nc1ccccc1)c1ccc2c(c1)C1(CCCCC1)CN2 | -2.11
* Nc1nccc(NCc2cc3n(n2)CCCN(C(=O)C2CCC2)C3)n1 | -6.62
* CCc1nccn1C1CCCN(C(=O)c2cnn(C)c2C2CC2)C1 (centres undefined) | -0.779
* O=C([C@@H]1Cc2[nH]cnc2CN1CC1CC1)N1CCCC1 | 9.33
* N#CC1(C(=O)N2C[C@H](Nc3ncccn3)[C@@H](C3CC3)C2)CCOCC1 | -15.6
* Cc1cnn(CCNCc2ccc(OCc3noc(C)n3)cc2)c1 | -6.14
* c1coc(-c2nnc(CN(Cc3cccs3)CC3CCCO3)o2)c1 (centres undefined) | -6.66
* CC(C)Cn1c2c(ccc1=O)CC(NC(=O)c1ccsc1)CC2 (centres undefined) | -11.8
* Cn1ccnc1COc1ccc(CSc2nnnn2C)cc1 | -11.4
* COc1ccc(C)cc1CN1CCn2cccc2C1C (centres undefined) | -1.19
* CC(C)CN1C[C@H]2C[C@H](C(=O)N3CCCC3)[C@@H](C1)O2 | -2.66
* CC(Cn1cccn1)NC(=O)NCCCN1CCCCCC1=O (centres undefined) | 0.306
* c1csc(CN2CC[C@H]3C[C@H](c4ccncn4)O[C@@H]3C2)c1 | -13.1
* O=c1c(-c2ccnc(N3CCCC[C@@H]3CO)n2)cnc2sccn12 | -4.35
* NC(=O)CC1CCN(C(=O)NCCc2ccc(Cl)s2)CC1 | -4.12
* C=C(C)COc1ccccc1CN1CCC(NC(C)=O)CC1 | 25.2
* CN(CCOc1cccc(CNC(=O)C2CC2)c1)C1CCOCC1 | -8.5
* COCC1CC2(CCN(Cc3nccn3C)CC2)CN1c1ncccn1 (centres undefined) | -0.457
* Nc1nccnc1C1CN(Cc2ccc(OCC(=O)O)cc2)CCO1 (centres undefined) | 0.531
* O=C(c1ccco1)N1CCCC2(CCN(CCN3CCCC3)C2=O)C1 (centres undefined) | -3.97

* * *

Each entry below carries its recorded cytotoxicity at 70.5 h.
# Assay comment: Human HepG2 cell viability assay in 384 well format
# Format: toxicity, cell-based
# Set-up: dose 125 nL, time 70.5 hour; concentration not given beside the values
# Measurement conditions: HepG2 cells, read-out: Inhibition
Measure name: cytotoxicity at 70.5 h (%)

* Cc1cc(CN2CCN(CC3CC3)[C@@H]3CS(=O)(=O)C[C@@H]32)ccc1F | 6.58
* O=C(CCc1c(F)cccc1F)NS(=O)(=O)c1ccc2c(c1)OCCO2 | -6.92
* Cc1cccnc1[C@H](C)Nc1nc(-c2cccnc2)nc2c1CNC2 | -8.07
* CC1CN(Cc2ccccc2Cn2cccn2)CCN1C (stereo not drawn) | -0.364
* O=C(c1cscn1)N1CC[C@@H]2[C@@H]1CCN2C1CCOCC1 | -3.43
* Cn1cc(C2(C)CN(c3ncccc3C#N)CCO2)cn1 (stereo not drawn) | 3.03
* Cc1csc(C(=O)N2CC(S(=O)(=O)C3CCCCC3)C2)c1 | -6.45
* CC(C)c1nc(CN(C)C(=O)CCc2ccc3c(c2)OCO3)cs1 | -9.76
* Cn1ncc(C2CC(=O)NCc3nc4sccn4c32)c1C1CC1 (stereo not drawn) | -12.3
* COc1ccccc1-c1nnc2n1NC(N)=C(C#N)S2 | -28.8
* CCC1=N[C@@]2(CC[C@@H]3CN(CC(=O)N(C)C)C[C@@H]32)C(=O)N1CC1CC1 | -13.2
* O=C(NC1CCN(C2CC2)CC1)c1[nH]nc(C2CC2)c1Cl | -4.43
* Cc1nc(CN2CCCN(Cc3nc4ccccc4o3)CC2)no1 | -8.61
* CCn1ncc(-c2nc3c[nH]n(CC)c-3n2)c1C | 0.803
* CC(C)(C)c1ccc(-c2n[nH]c3c2CN(CC2CCOC2)CC3)cc1 (stereo not drawn) | -12
* CC(NC(=O)N1CCCN(CC(F)F)CC1)c1ccco1 (stereo not drawn) | -8.42
* CC(C)=CCN1CCN(Cc2ncc[nH]2)[C@H]2CS(=O)(=O)C[C@H]21 | -4.55
* CNc1cc(C2CCCN2Cc2ccccc2C(=O)O)ccn1 (stereo not drawn) | -9.85
* COc1ccc(NC(=O)N2CCOCC(CN(C)C)C2)c(C)c1 (stereo not drawn) | 17.5
* CN(C)S(=O)(=O)N1CC(c2ccnc(Nc3ccccn3)n2)C1 | -5.03
* CCC(CO)N(Cc1ccsc1)CC1CC1 (stereo not drawn) | -4.03
* CC(C)(CN1CCCC1)CN1CCC(Cn2cc(CCO)nn2)CC1 | 18.9
* CC(C)CNC(=O)c1cc(Br)c2c(c1)OCCO2 | -7.77

* * *

Each entry below carries its recorded cytotoxicity at 70.5 h.
# Assay comment: Human HepG2 cell viability assay in 384 well format
# Type: toxicity, cell-based
# Design: dose 125 nL, time 70.5 hour; concentration not given beside the values
# Measurement conditions: HepG2 cells, read-out: Inhibition
Measure name: cytotoxicity at 70.5 h (%)

• O=C(O)c1ccc(CC2CCN(S(=O)(=O)N3CCOCC3)C2)cc1 (centres undefined) = -5.44
• CC[C@H](C)[C@H](NC(=O)Cc1csc(-c2cccc(Cl)c2)n1)C(=O)O = -27.4
• Cc1ccnc(SCC(=O)Nc2csc3nc(=O)c(C)nn23)n1 = 7.67
• CS(=O)(=O)NC1CCN(C(=O)c2ccc(Br)cc2)C1 (centres undefined) = -7.16
• Cn1cccc1C(=O)N1CCC2(CCCN(CC3CC3)C2=O)C1 (centres undefined) = -4.86
• Cc1ncsc1-c1nnc(C2CCN(Cc3cccc(F)c3F)CC2)o1 = 38.7
• CN(c1cccnc1N1CCCC1)S(=O)(=O)c1cccnc1 = 3.33
• CCOc1ncccc1Cn1cc(-c2cncnc2)nn1 = -15.8
• CN(C)c1ccc(C(=O)N2CCC(c3n[nH]c(C4CC4)n3)CC2)cc1 = -6.1
• Cc1ccc(Oc2ncccc2CNC2CCCCC2)cn1 = -5.62
• Cn1cnc(S(=O)(=O)N2C[C@H]3CN(Cc4cccnc4)C[C@H]3C2)c1 = 1.66
• CN1CCN(C2CCN(c3cnc4ccccc4n3)CC2)C1=O = -12.4
• O=C(C1CCOCC1)N1CCO[C@H]2[C@H](Oc3ccccn3)CC[C@@H]21 = 13.9
• O=C(c1ccc[nH]1)N1CCC2(CC1)COCCN(c1nccs1)C2 = -1.47
• CN(Cc1nnc(C2CC2)n1C)C1CCN(Cc2ccccc2)C1 (centres undefined) = 17.5
• CCOC(=O)C1CCCN(Cc2c[nH]nc2-c2cc3ccccc3o2)C1 (centres undefined) = 18.3
• CCC(CNC(=O)c1ccccn1)N1CCc2ccccc2C1 (centres undefined) = 10.5
• CC(Cn1cccn1)NC(=O)Nc1nccs1 (centres undefined) = -21.9
• Cc1nc(CN2CCCC(N(C)Cc3cscn3)C2)no1 (centres undefined) = 4.42
• Cc1cc(NCCc2nc(C)c[nH]2)nc(-c2ccccc2O)n1 = -1.72
• O=C(c1ccco1)N1C[C@H]2CCCN(Cc3ccc(F)cc3)[C@H]2C1 = -9.54
• Cc1ccc(CS(=O)(=O)CC(=O)NCCCOC(C)C)cc1 = -10.8
• Cc1noc(C)c1CNCc1nn(-c2ccccc2)c2c1CCC2 = -3.23
• NC(=O)NC(=O)CCSc1ccccc1Cl = -17.5

* * *

Each entry below carries its recorded cytotoxicity at 70.5 h.
# Assay comment: Human HepG2 cell viability assay in 384 well format
# Assay type: toxicity, cell-based
# Parameters: dose 125 nL, time 70.5 hour; concentration not given beside the values
# Measurement conditions: HepG2 cells, read-out: Inhibition
Measure name: cytotoxicity at 70.5 h (%)

- CCOCCCC(=O)NCc1cn2cc(Br)ccc2n1: -3.96
- Cc1cc(-c2ccccc2)nc(C2CCCN2S(C)(=O)=O)n1 (centres undefined): -5.33
- Cc1ccccc1CNC(=O)c1ccccc1-n1cnc(CN)c1: -0.745
- Cc1cc(NC(=O)c2ccc(-n3ncc(C#N)c3N)cc2)n(C)n1: -8.66
- Cc1n[nH]c(C)c1-c1cnc(C2CCN(S(C)(=O)=O)CC2)cn1: -6.98
- Cn1cc(C(=O)CC2CCCN2C(=O)c2cccc3ncccc23)cn1 (centres undefined): 14.5
- Cc1noc(CN2CCC(c3ccnn3CCO)CC2)n1: -13.4
- O=S(=O)(Cc1cccc(F)c1)NCC(O)Cc1ccccc1 (centres undefined): -10.7
- Cc1ccccc1-c1cc(C(=O)N2CCn3c(C)nnc3C2)[nH]n1: 0.102
- Cc1ccc(C(=O)NS(C)(=O)=O)cc1I: 16.8
- O=C(c1cscn1)N1CC[C@H]2C[C@@H](c3ccncn3)O[C@@H]2C1: 7.77
- Cc1csc(C2(NC(=O)NCCN3CCOCC3)CCCC2)n1: -7.84
- COC(=O)[C@@H]1Cc2ncn(C)c2CN1S(=O)(=O)c1cccs1: -1.34
- Cc1cc(C(=O)NCC(C)N2CCc3ccccc32)no1 (centres undefined): 15.4
- Cc1[nH]c2ccc(CNC3CCN(Cc4ccccn4)CC3)cc2c1C: 3.44
- CCc1nccn1-c1nccnc1C1CCCN(C(=O)COC)C1 (centres undefined): -6.06
- Cn1ncc(C(=O)N2CCN(C(=O)c3ccco3)CC2)c1Cl: -13.4
- CCOC1(C)C(=O)c2ccccc2N1Nc1ccccc1C(=O)CC (centres undefined): -14.4
- Cc1nc(C)n(CC2CN(Cc3cccc4ccccc34)CCO2)n1 (centres undefined): -11.6
- COc1ccc(-c2cc(-c3nc(CN4CCN(C)CC4)no3)[nH]n2)cc1: -5.68
- CCCc1n[nH]c(C2CN(C(=O)c3cncnc3C)CCO2)n1 (centres undefined): 3.13
- CC(C)CNC(=O)CNC(=O)NCC(O)c1ccc2ccccc2c1 (centres undefined): -3.3
- CN1CCCCC1c1nc(Cc2cccc(F)c2)no1 (centres undefined): -7.67
- Cc1n[nH]c(C2CN(C(=O)c3ccc(Cl)o3)CCO2)n1 (centres undefined): -11.1
